// reported Plant response rating, Soybean for each item listed
Test system: soybean (Glycine max)
Assay: Test C pre-/postemergence: soybean
Assay type: in vivo
Details: Preemergence, 31 g ai/ha; scale 0 (no effect) to 100 (complete control)
Answer using only a numeral; do not append any unit.

Observe how each entry below is paired with its result.
INSERT INTO measurements (smiles_data, target_entity, result_value) VALUES
  ('CCc1nn(-c2ccc(C(F)(F)F)c(F)c2)nc1Oc1ccnc(C(F)(F)F)c1', 'soybean (Glycine max)', 5),
  ('CCc1nn(-c2ccc(F)c(F)c2)nc1Oc1ccnc(C(F)(F)F)c1', 'soybean (Glycine max)', 0),
  ('CCCc1nn(-c2ccc(F)cc2F)nc1Oc1ccnc(C(F)(F)F)c1', 'soybean (Glycine max)', 0);

Turning now to a further compound:
Problem: For CCOc1nn(-c2ccc(F)cc2)nc1Cc1ccnc(C(F)(F)F)c1 , what is its reported Plant response rating, Soybean?
Solution: 10

###

// reported Barnyardgrass plant response rating for each item listed
Test system: barnyardgrass (Echinochloa crus-galli)
Test: Test A pre-/postemergence: barnyardgrass
Type: in vivo
Details: Postemergence, 500 g ai/ha; visual rating on 0 to 100 scale (0 no effect, 100 complete control), approximately ten days
Answer using only a numeral; do not append any unit.

INSERT INTO assay_data (molecule, result_value) VALUES
  ('Cc1nn(-c2ccc(C(F)(F)F)cc2)nc1Oc1ccnc(OC(F)F)c1', 30),
  ('Cc1nn(-c2ccc(C(F)(F)F)cc2)nc1Sc1cccc(C(F)(F)F)c1', 20),
  ('Cc1nn(-c2ccc(C(F)(F)F)cc2)nc1Oc1cncc(C(F)(F)F)c1', 20);

Turning now to a further molecule:
Problem: For Cc1nn(-c2ccc(C(F)(F)F)c(F)c2)nc1Oc1ccnc(C(F)(F)F)c1 , what is its reported Barnyardgrass plant response rating?
Solution: 90

###

Tested on: nutsedge, yellow (yellow nutsedge, Cyperus esculentus)
Assay: Test C pre-/postemergence: nutsedge, yellow
Assay type: in vivo
Conditions: Postemergence, 125 g ai/ha; scale 0 to 100, 0 no effect, 100 complete control
PARAMETER: Plant response rating, Nutsedge, Yellow
Answer using only a numeral; do not append any unit.

Observe how each entry below is paired with its result.
INSERT INTO results (smiles_data, target_entity, parameter, result_value) VALUES
  ('COc1nn(-c2ccc(C(F)(F)F)cc2)nc1Cc1ccnc(C(F)(F)F)c1', 'nutsedge, yellow (yellow nutsedge, Cyperus esculentus)', 'Plant response rating, Nutsedge, Yellow', 0),
  ('FC(F)(F)COc1nn(-c2ccc(C(F)(F)F)cc2)nc1Cc1ccnc(C(F)(F)F)c1', 'nutsedge, yellow (yellow nutsedge, Cyperus esculentus)', 'Plant response rating, Nutsedge, Yellow', 0),
  ('CCOc1nn(-c2ccc(Cl)cc2)nc1Cc1ccnc(C(F)(F)F)c1', 'nutsedge, yellow (yellow nutsedge, Cyperus esculentus)', 'Plant response rating, Nutsedge, Yellow', 10),
  ('Fc1ccc(-n2nc(Cc3ccnc(C(F)(F)F)c3)c(OC(F)F)n2)cc1', 'nutsedge, yellow (yellow nutsedge, Cyperus esculentus)', 'Plant response rating, Nutsedge, Yellow', 10),
  ('CCc1nn(-c2ccc(C(F)(F)F)cc2)nc1Cc1ccnc(C(F)(F)F)c1', 'nutsedge, yellow (yellow nutsedge, Cyperus esculentus)', 'Plant response rating, Nutsedge, Yellow', 10);

Turning now to a further molecule:
Problem: // fetch nutsedge, yellow (yellow nutsedge, Cyperus esculentus) Plant response rating, Nutsedge, Yellow for Cc1nn(-c2ccc(F)c(C(F)(F)F)c2)nc1Cc1ccnc(C(F)(F)F)c1
Solution: 10

Cited source: patent US9302999B2
